- tested target: AGFG1 Arf-GAP domain and FG repeat-containing protein 1 (Homo sapiens)
- Construct: isoTOP-ABPP experiments performed in cell lysates (in vitro); endogenous in cells; host or cells: soluble proteome of human cancer cell lines (MDA-MB-231, Ramos, Jurkat)
- Sequence (P52594 whole entry, the tested form may be a part): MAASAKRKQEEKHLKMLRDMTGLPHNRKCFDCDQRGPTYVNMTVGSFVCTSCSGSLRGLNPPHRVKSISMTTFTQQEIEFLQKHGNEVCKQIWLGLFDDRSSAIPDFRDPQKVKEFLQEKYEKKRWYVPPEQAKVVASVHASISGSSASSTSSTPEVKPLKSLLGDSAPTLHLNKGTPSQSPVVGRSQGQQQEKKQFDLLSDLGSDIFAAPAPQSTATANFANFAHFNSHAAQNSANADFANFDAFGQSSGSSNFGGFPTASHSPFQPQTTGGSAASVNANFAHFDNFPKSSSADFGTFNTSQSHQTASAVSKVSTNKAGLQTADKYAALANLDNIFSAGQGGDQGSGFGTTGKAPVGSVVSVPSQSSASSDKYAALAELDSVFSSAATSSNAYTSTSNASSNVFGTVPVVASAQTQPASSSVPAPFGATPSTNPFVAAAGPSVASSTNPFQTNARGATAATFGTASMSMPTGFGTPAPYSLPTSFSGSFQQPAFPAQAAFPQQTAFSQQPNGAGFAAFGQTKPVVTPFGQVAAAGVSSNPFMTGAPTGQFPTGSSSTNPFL
- assay: competitive isoTOP-ABPP
- Type: binding
- Set-up: key: R = MS1 peak area ratio, DMSO (heavy) / compound-treated (light)
- assay conditions: 50 uM, 231 sol, in vitro
- Experimental: In vitro covalent fragment treatment for isoTOP-ABPP. All compounds were made up as solutions in DMSO (100×) and were used at a final concentration of 50 μM for activated esters and 100 μM for guanidinylating agents. […] R value calculation and processing. The ratios of light and heavy MS1 peaks for each unique peptide were quantified with a CIMAGE software using default parameters (3 MS1 acquisitions per peak and signal to noise threshold set to 2.5). […]
Reported isoTOP-ABPP reactivity ratio at lysine P52594_K134 values for a set of compounds
measured quantity: isoTOP-ABPP reactivity ratio at lysine P52594_K134

[[record]]
compound = "COc1cc(CCC(=O)Oc2ccc([N+](=O)[O-])cc2[N+](=O)[O-])cc(OC)c1OC [fragment 33]"
value_reported = 20.0

[[record]]
compound = "Cn1cc(CC(=O)Oc2ccc([N+](=O)[O-])cc2[N+](=O)[O-])c2ccccc21 [fragment 32]"
value_reported = 19.9

[[record]]
compound = "O=C(Oc1c(F)c(F)c(F)c(F)c1F)c1ccc2ccccc2n1 [fragment 25]"
value_reported = 1.1

[[record]]
compound = "O=C(CCc1coc2cc(F)ccc2c1=O)Oc1c(F)c(F)c(F)c(F)c1F [fragment 26]"
value_reported = 2.2

[[record]]
compound = "O=C(Oc1ccc([N+](=O)[O-])cc1[N+](=O)[O-])c1cc(C(F)(F)F)cc(C(F)(F)F)c1 [fragment 31]"
value_reported = 1.2

[[record]]
compound = "O=C(Oc1ccc([N+](=O)[O-])cc1[N+](=O)[O-])C(c1ccccc1)c1ccccc1 [fragment 30, 2,4-Dinitrophenyl 2,2-diphenylacetate]"
value_reported = 14.3

[[record]]
compound = "O=C(Oc1c(F)c(F)c(F)c(F)c1F)C1CCN(C(=O)OCc2ccccc2)CC1 [fragment 24]"
value_reported = 1.5

[[record]]
compound = "O=C(CN1C(=O)c2ccccc2C1=O)Oc1c(F)c(F)c(F)c(F)c1F [fragment 27]"
value_reported = 1.5

[[record]]
compound = "CCn1cc(C(=O)Oc2c(F)c(F)c(F)c(F)c2F)c(=O)c2ccc(C)nc21 [fragment 28]"
value_reported = 1.0

[[record]]
compound = "O=C(CCc1cn(-c2ccccc2)nc1-c1ccccc1)Oc1ccc([N+](=O)[O-])cc1[N+](=O)[O-] [fragment 29]"
value_reported = 1.4


---

Reported isoTOP-ABPP ratio (R) at liganded lysine P55786_K712 values for a set of compounds
- tested target: NPEPPS Puromycin-sensitive aminopeptidase (Homo sapiens)
- Construct: isoTOP-ABPP experiments performed in cell lysates (in vitro); endogenous in cells; host or cells: soluble proteome of human cancer cell lines (MDA-MB-231, Ramos, Jurkat)
- Sequence (P55786 whole entry): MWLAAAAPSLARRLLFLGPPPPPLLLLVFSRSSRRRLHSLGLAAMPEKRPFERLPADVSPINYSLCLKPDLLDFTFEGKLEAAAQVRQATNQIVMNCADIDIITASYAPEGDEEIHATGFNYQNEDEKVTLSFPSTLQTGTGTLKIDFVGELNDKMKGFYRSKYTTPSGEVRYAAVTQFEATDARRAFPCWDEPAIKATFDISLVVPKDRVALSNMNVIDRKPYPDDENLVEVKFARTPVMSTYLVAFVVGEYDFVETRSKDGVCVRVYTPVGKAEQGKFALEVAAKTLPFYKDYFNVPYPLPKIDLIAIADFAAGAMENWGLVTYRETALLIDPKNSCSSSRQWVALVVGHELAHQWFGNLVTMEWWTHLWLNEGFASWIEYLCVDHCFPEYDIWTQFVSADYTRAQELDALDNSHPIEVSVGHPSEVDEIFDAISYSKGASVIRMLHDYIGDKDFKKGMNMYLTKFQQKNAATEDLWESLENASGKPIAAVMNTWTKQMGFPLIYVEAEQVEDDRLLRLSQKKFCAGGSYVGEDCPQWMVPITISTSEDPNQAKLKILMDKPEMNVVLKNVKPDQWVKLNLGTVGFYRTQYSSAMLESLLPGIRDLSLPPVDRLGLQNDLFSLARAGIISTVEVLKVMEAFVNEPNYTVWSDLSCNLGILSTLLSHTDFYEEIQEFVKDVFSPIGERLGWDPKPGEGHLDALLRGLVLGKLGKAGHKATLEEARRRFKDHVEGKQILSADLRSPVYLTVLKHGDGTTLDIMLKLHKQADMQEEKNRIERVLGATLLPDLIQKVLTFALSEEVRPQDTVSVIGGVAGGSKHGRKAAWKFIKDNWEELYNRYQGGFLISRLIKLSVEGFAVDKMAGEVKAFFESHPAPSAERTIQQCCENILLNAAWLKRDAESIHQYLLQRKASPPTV
- assay: competitive isoTOP-ABPP
- Format: binding
- assay conditions: 50 uM, in vitro, sol, 231
measured quantity: isoTOP-ABPP ratio (R) at liganded lysine P55786_K712

[[record]]
compound = "O=C(CCc1coc2cc(F)ccc2c1=O)Oc1ccc([N+](=O)[O-])cc1[N+](=O)[O-] [fragment 36]"
value_reported = 2.7

[[record]]
compound = "O=C(Oc1ccc([N+](=O)[O-])cc1[N+](=O)[O-])C1CCN(C(=O)OCc2ccccc2)CC1 [fragment 34]"
value_reported = 11.0

[[record]]
compound = "CC(C)(C)OC(=O)NCCCC(=O)Oc1ccc([N+](=O)[O-])cc1[N+](=O)[O-] [fragment 41]"
value_reported = 1.5

[[record]]
compound = "O=C(Oc1ccc([N+](=O)[O-])cc1[N+](=O)[O-])c1ccc(-c2ccccc2)cc1 [fragment 37]"
value_reported = 0.9

[[record]]
compound = "O=C(Oc1ccc([N+](=O)[O-])cc1[N+](=O)[O-])c1ccc(Oc2ccccc2)cc1 [fragment 39, 2,4-Dinitrophenyl 4-phenoxybenzoate]"
value_reported = 0.9

[[record]]
compound = "O=C(CC12CC3CC(CC(C3)C1)C2)Oc1ccc([N+](=O)[O-])cc1[N+](=O)[O-] [fragment 38]"
value_reported = 1.0

[[record]]
compound = "O=C(Oc1ccc([N+](=O)[O-])cc1[N+](=O)[O-])c1ccccc1Nc1cccc(C(F)(F)F)c1 [fragment 40]"
value_reported = 1.0

[[record]]
compound = "O=C(Oc1ccc([N+](=O)[O-])cc1[N+](=O)[O-])c1ccc2ccccc2n1 [fragment 35]"
value_reported = 1.3

[[record]]
compound = "O=C(Oc1ccc([N+](=O)[O-])cc1[N+](=O)[O-])C(c1ccccc1)(c1ccccc1)c1ccccc1 [fragment 42, 2,4-Dinitrophenyl 2,2,2-triphenylacetate]"
value_reported = 0.9

[[record]]
compound = "CC(=O)Oc1ccc([N+](=O)[O-])cc1[N+](=O)[O-] [fragment 43, 2,4-Dinitrophenyl acetate]"
value_reported = 2.3


---

- tested target: XRCC6 X-ray repair cross-complementing protein 6 (Homo sapiens, UniProt P12956)
- Construct: isoTOP-ABPP experiments performed in cell lysates (in vitro); endogenous in cells; host or cells: soluble proteome of human cancer cell lines (MDA-MB-231; Ramos and Jurkat also prepared)
- Sequence (P12956 2-609 limits assumed): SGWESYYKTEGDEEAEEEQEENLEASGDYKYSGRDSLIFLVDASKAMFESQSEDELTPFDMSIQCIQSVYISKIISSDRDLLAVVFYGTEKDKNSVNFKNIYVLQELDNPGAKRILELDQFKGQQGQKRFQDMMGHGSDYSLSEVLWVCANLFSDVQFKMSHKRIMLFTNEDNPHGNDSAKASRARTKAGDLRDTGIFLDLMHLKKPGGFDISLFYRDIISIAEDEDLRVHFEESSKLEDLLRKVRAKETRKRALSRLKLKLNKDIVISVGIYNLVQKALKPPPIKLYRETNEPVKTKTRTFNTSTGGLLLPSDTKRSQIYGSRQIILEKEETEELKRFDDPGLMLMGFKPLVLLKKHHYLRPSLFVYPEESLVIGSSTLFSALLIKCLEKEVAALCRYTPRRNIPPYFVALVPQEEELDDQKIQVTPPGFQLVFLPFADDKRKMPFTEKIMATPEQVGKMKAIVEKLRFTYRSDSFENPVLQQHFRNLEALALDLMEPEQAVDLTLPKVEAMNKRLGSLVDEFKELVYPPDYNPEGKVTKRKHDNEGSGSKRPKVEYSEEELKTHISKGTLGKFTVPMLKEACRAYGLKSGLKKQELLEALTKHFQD
- Sequence (P13010 2-732 partner limits assumed): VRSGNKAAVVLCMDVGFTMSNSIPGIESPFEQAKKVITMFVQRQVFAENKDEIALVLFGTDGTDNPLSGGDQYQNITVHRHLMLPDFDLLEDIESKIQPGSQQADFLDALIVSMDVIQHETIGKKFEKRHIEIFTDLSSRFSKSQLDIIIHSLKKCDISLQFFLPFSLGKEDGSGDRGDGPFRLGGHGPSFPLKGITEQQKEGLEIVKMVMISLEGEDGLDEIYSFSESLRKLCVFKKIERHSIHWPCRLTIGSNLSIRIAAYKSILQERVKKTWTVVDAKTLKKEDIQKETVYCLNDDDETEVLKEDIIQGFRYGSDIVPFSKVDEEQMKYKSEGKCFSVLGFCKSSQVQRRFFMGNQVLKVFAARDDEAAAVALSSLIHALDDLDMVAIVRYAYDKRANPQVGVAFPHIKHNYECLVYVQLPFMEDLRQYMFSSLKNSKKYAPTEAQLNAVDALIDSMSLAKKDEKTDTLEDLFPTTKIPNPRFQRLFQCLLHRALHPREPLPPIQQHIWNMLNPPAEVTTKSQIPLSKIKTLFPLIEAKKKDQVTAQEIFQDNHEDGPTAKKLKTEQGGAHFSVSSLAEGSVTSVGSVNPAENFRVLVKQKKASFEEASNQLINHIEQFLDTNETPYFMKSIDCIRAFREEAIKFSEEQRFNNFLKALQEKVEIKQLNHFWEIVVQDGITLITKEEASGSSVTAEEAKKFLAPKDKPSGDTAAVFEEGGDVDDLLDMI
- assay: competitive isoTOP-ABPP
- Format: binding
- assay conditions: 50 uM, in vitro, sol, 231
Reported isoTOP-ABPP ratio (R) at liganded lysine P12956_K351 values for a set of compounds
measured quantity: isoTOP-ABPP ratio (R) at liganded lysine P12956_K351

[[record]]
compound = "O=C(Oc1ccc([N+](=O)[O-])cc1[N+](=O)[O-])c1ccccc1Nc1cccc(C(F)(F)F)c1"
value_reported = 1.0

[[record]]
compound = "O=C(Oc1ccc([N+](=O)[O-])cc1[N+](=O)[O-])c1ccc(-c2ccccc2)cc1"
value_reported = 1.3

[[record]]
compound = "O=C(CCc1coc2cc(F)ccc2c1=O)Oc1ccc([N+](=O)[O-])cc1[N+](=O)[O-]"
value_reported = 2.1

[[record]]
compound = "O=C(Oc1ccc([N+](=O)[O-])cc1[N+](=O)[O-])c1ccc(Oc2ccccc2)cc1 [fragment 39, 2,4-Dinitrophenyl 4-phenoxybenzoate]"
value_reported = 1.6

[[record]]
compound = "O=C(Oc1ccc([N+](=O)[O-])cc1[N+](=O)[O-])C(c1ccccc1)(c1ccccc1)c1ccccc1 [fragment 42, 2,4-Dinitrophenyl 2,2,2-triphenylacetate]"
value_reported = 1.0

[[record]]
compound = "O=C(Oc1ccc([N+](=O)[O-])cc1[N+](=O)[O-])c1ccc2ccccc2n1"
value_reported = 1.5

[[record]]
compound = "O=C(Oc1ccc([N+](=O)[O-])cc1[N+](=O)[O-])C1CCN(C(=O)OCc2ccccc2)CC1"
value_reported = 1.6

[[record]]
compound = "CC(C)(C)OC(=O)NCCCC(=O)Oc1ccc([N+](=O)[O-])cc1[N+](=O)[O-]"
value_reported = 1.6

[[record]]
compound = "O=C(CC12CC3CC(CC(C3)C1)C2)Oc1ccc([N+](=O)[O-])cc1[N+](=O)[O-]"
value_reported = 3.3

[[record]]
compound = "CC(=O)Oc1ccc([N+](=O)[O-])cc1[N+](=O)[O-] [fragment 43, 2,4-Dinitrophenyl acetate]"
value_reported = 1.5


---

- tested target: PFKP 6-phosphofructokinase type C (Homo sapiens, UniProt Q01813)
- Construct: isoTOP-ABPP experiments performed in cell lysates (in vitro); endogenous in cells
- Sequence (Q01813 whole entry): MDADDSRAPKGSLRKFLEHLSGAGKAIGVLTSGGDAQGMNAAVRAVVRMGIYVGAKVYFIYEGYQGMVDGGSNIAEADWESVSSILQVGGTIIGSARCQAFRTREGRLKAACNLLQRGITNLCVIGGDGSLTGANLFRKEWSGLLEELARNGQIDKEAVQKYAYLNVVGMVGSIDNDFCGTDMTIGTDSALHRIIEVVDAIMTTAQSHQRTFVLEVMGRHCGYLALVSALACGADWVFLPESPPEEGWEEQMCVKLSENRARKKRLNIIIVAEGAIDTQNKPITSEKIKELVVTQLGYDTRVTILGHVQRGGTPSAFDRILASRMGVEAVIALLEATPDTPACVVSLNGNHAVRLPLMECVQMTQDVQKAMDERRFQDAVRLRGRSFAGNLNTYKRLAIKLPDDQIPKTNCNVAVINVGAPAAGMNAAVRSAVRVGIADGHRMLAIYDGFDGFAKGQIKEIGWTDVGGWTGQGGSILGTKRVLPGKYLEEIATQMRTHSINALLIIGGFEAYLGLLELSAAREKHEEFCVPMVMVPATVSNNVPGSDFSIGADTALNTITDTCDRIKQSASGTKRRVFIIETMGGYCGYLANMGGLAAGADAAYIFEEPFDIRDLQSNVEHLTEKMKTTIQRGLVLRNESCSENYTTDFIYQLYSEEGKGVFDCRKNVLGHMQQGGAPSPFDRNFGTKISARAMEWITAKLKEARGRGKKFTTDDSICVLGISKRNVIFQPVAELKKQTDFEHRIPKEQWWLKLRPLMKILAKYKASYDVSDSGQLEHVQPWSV
- assay: competitive isoTOP-ABPP
- Assay type: binding
- assay conditions: 50 uM, in vitro, sol, 231
Would you please tag the item satisfied when its isoTOP-ABPP ratio (R) at liganded lysine Q01813_K688 is 4 or above, and not satisfied when it is below?

[[record]]
molecule = "O=C(Oc1ccc([N+](=O)[O-])cc1[N+](=O)[O-])C1CCN(C(=O)OCc2ccccc2)CC1 [fragment 34]"
tested_target = "PFKP 6-phosphofructokinase type C (Homo sapiens, UniProt Q01813)"
discrete_label = "not satisfied"

[[record]]
molecule = "O=C(CCc1coc2cc(F)ccc2c1=O)Oc1ccc([N+](=O)[O-])cc1[N+](=O)[O-] [fragment 36]"
tested_target = "PFKP 6-phosphofructokinase type C (Homo sapiens, UniProt Q01813)"
discrete_label = "satisfied"

[[record]]
molecule = "O=C(Oc1ccc([N+](=O)[O-])cc1[N+](=O)[O-])c1ccc(-c2ccccc2)cc1 [fragment 37]"
tested_target = "PFKP 6-phosphofructokinase type C (Homo sapiens, UniProt Q01813)"
discrete_label = "not satisfied"

[[record]]
molecule = "CC(C)(C)OC(=O)NCCCC(=O)Oc1ccc([N+](=O)[O-])cc1[N+](=O)[O-] [fragment 41]"
tested_target = "PFKP 6-phosphofructokinase type C (Homo sapiens, UniProt Q01813)"
discrete_label = "satisfied"

[[record]]
molecule = "O=C(Oc1ccc([N+](=O)[O-])cc1[N+](=O)[O-])C(c1ccccc1)(c1ccccc1)c1ccccc1 [fragment 42, 2,4-Dinitrophenyl 2,2,2-triphenylacetate]"
tested_target = "PFKP 6-phosphofructokinase type C (Homo sapiens, UniProt Q01813)"
discrete_label = "not satisfied"

[[record]]
molecule = "O=C(Oc1ccc([N+](=O)[O-])cc1[N+](=O)[O-])c1ccccc1Nc1cccc(C(F)(F)F)c1 [fragment 40]"
tested_target = "PFKP 6-phosphofructokinase type C (Homo sapiens, UniProt Q01813)"
discrete_label = "not satisfied"

